system: HOP-62; experiment: NCI tumour cell line growth inhibition, 48 h
Activity calls are given as the source filed them. No stated cut-off is given here; in the data, active = GI50 up to about 1.1 µM and inactive = higher.
Hi! Could you answer with just one of these? label 1 for active, label 0 for inactive

Inquiry: Given `COC(=O)C1=C(C)NC(C)=C(C(=O)OC)C1c1ccc(NO)cc1` , state the outcome it received in this test.
Reply text: label 0

Inquiry: How did this test come out for CCCCCCCCCCCC(=O)OCC1OC(n2cc(F)c(=O)[nH]c2=O)C(N)C(OC(=O)CCCCCCCCCCC)C1O (stereo not given) ?
Reply text: label 0

====

tested on: NCI-H522; assay: NCI tumour cell line growth inhibition, 48 h
Active and inactive are the calls of the source. Cut-off read from the data, not from the text of the source: active = GI50 up to about 1.1 µM and inactive = higher.
Hi! Could you answer with just one of these? Yes = active, No = inactive

Answered cases to consult:
Inquiry: Query: recorded result category for `Cn1c2ccccc2n2c(N=O)c(-c3ccccc3)nc12` in this test
Reply text: No

Inquiry: What classification did `O=C(NCCc1ccccc1)c1c(O)nc2ccccc2c1O` end up with in this test?
Reply text: No

Inquiry: Could you please tell me the result logged for `c1ccc2c3nc(C4CCCC4)nc-3c(NC3CCCC3)[nH]c2c1` in this assay?
Reply text: No

Inquiry: Status in this test for `CCCN1CCC(=O)N(CCC(F)(F)C(F)(F)C(F)(F)C(F)(F)C(F)(F)C(F)(F)F)C1=S` ?
Reply text: No

Others:
Inquiry: Called result for `COc1ccc(-c2cc(-c3ccccc3)[nH]c(=S)c2C#N)cc1`
Reply text: No

Inquiry: Please indicate how the test categorized `c1ccc2c3c([nH]c2c1)C1(CCCCC1)c1c([nH]c2ccccc12)C31CCCCC1` .
Reply text: No

Inquiry: Could you kindly confirm the outcome this assay logged for `CN(NC1=NCCO1)c1ccc2ccccc2c1` ?
Reply text: No

Inquiry: Kindly provide the recorded test outcome for the following molecule: `c1ccc(CNc2c3c(nc4ccccc24)CCC3)cc1`
Reply text: No

====

test system: SW-620; assay: NCI tumour cell line growth inhibition, 48 h
Active and inactive are the calls of the source. Rule as the data show it: active = GI50 up to about 1.1 µM and inactive = higher.
Would you mind telling me the reported GI50 of each entry?

For each entry beneath this line, provide reported GI50.
1. CN(NC1=NCCO1)c1ccc2ccccc2c1
2. N#C/C(c1nc2ccccc2[nH]1)=c1\s/c(=C/c2ccc(Cl)cc2)c(=O)n1-c1ccccc1

Reply text:
34.1 µM (inactive)
> 100 µM (inactive)

For every record below, what is its GI50?
1. Cc1cccc(N2C(=O)C3c4[nH]c5ccccc5c4C4CCC(C(C)(C)C)CC4C3C2=O)c1 (centres undefined)
2. O=c1nc(NC(c2ccccc2)(c2ccccc2)c2ccccc2)ccn1CCNCCn1ccc(NC(c2ccccc2)(c2ccccc2)c2ccccc2)nc1=O

Reply text:
["11.8 µM (inactive)", "6.64 µM (inactive)"]

====

test system: UO-31; test: NCI tumour cell line growth inhibition, 48 h
The source made the active and inactive calls. Cut-off read from the data, not from the text of the source: active = GI50 up to about 1.1 µM and inactive = higher.
experimental_endpoint: GI50

Solved cases below.
// GI50 lookup, compound = NC1=NC2(COC(c3ccccc3)(c3ccccc3)c3ccccc3)OC(COC(c3ccccc3)(c3ccccc3)c3ccccc3)C(O)C2O1 (stereo unspecified) , result: 13.4 µM (inactive)

The recorded GI50 for entry `O=c1c2cc3ccccc3n2c(=O)c2cc3ccccc3n12` equals > 100 µM (inactive)

Reported GI50 for FC(F)(F)c1ccc(C2SCc3nc4ccccc4n32)cc1 (stereo unspecified) was > 100 µM (inactive)

Summary for this compound, `CC1=C(c2nc3ccccc3s2)C(=O)OC1(C)C` : GI50 is > 100 µM (inactive)

GI50 recorded for this compound, C=CC(OC(C)=O)c1ccc(OC(C)=O)cc1 (stereo unspecified) , is 2.1 µM (inactive)

compound `COc1cccc2cc(C(=O)Nc3ccccn3)c(=N)oc12` , GI50 observed: > 100 µM (inactive)

Please report GI50 for every entry that follows.
1. CC(C)(CC(O)C#N)/[N+]([O-])=[N+](\[O-])C(C)(C)CC(O)C#N (stereo unspecified)
2. Cc1nc2ccccc2c(=O)[nH]1
3. NNC(=O)CCC(=O)NC1C2CC3CC(C2)CC1C3 (stereo unspecified)
4. CS(=O)(=O)N(CCC#N)c1ccc(/C=C2\N=C(c3ccccc3Cl)OC2=O)cc1
5. CCN(CC)C(=S)SS(=O)(=O)c1ccc(Cl)cc1

Reply text:
1. 26.9 µM (inactive)
2. > 100 µM (inactive)
3. > 100 µM (inactive)
4. > 100 µM (inactive)
5. 17.7 µM (inactive)
